Provenance of the data: ChEMBL document CHEMBL4402598

TEST_TARGET: D(3) dopamine receptor (Homo sapiens)
Sequence (P35462 whole entry): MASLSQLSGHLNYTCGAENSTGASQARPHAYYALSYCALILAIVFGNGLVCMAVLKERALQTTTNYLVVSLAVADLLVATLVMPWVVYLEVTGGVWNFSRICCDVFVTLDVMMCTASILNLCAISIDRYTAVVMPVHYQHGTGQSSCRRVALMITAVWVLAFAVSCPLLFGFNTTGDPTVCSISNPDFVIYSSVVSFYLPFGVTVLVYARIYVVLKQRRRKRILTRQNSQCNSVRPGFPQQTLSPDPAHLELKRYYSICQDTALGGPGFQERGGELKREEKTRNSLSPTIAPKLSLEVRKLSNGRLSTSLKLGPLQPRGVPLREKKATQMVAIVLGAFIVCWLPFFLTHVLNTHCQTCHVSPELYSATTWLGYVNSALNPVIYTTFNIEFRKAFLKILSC
EXPERIMENT_NOTES: Displacement of [3H]-N-methylspiperone from recombinant human D3 receptor (unknown origin) measured after 90 mins by microbeta scintillation counting method
Recorded pKi values for a group of compounds are listed next.
When answering, recall that pKi equals minus log10 of the concentration in mol/L, and write that number alone.

In [3]: df
Out[3]:
                                   compound                            test_target  test_value
0  CCCN(CCCCNC(=O)c1cc2ccccc2[nH]1)CC1CC1c1ccc(C(F)(F)F)cc1 (stereo not given)  D(3) dopamine receptor (Homo sapiens)        7.48

Annotate the compound CCCN(CCCCNC(=O)c1ccc2ccccc2c1)CC1CC1c1cccc(F)c1 (stereo not given) with its measured pKi.
7.57

Annotate the compound COc1ccc(F)cc1C1CC1CNCCCSc1nnc(-c2ccccc2)n1C (stereo not given) with its measured pKi.
7.05

Annotate the compound CCN(CCCCNC(=O)c1cc2ccccc2[nH]1)CC1CC1c1cc(F)ccc1OC (stereo not given) with its measured pKi.
7.63

Annotate the compound CCOc1ccc(F)cc1C1CC1CN(CC)CCCSc1nnc(-c2ccccc2)n1C (stereo not given) with its measured pKi.
7.26

Annotate the compound CCCN(CCCCNC(=O)c1ccc(-c2ccccn2)cc1)CC1CC1c1ccc(C(F)(F)F)cc1 (stereo not given) with its measured pKi.
7.63

Annotate the compound CCCN(CCCCNC(=O)c1ccc(-c2ccccn2)cc1)CC1CC1c1ccc(Cl)cc1 (stereo not given) with its measured pKi.
7.75

Annotate the compound CCCN(CCCCNC(=O)c1cc2ccccc2[nH]1)CC1CC1c1ccc(F)cc1 (stereo not given) with its measured pKi.
7.34

Annotate the compound CCCN(CCCCNC(=O)c1cc2ccccc2[nH]1)CC1CC1c1cccc(F)c1 (stereo not given) with its measured pKi.
7.73

Annotate the compound CCCN(CCCCNC(=O)c1ccc(-c2ccccn2)cc1)CC1CC1c1ccc(F)cc1 (stereo not given) with its measured pKi.
6.97

Annotate the compound CN(CCCSc1nnc(-c2ccccc2)n1C)CC1CC1c1cc(F)ccc1OCCF (stereo not given) with its measured pKi.
6.25

Annotate the compound CCCN(CCCCNC(=O)c1ccc(-c2ccccn2)cc1)CC1CC1c1cccc(Cl)c1 (stereo not given) with its measured pKi.
7.58

Annotate the compound CCCN(CCCSc1nnc(-c2ccccc2)n1C)CC1CC1c1cc(F)ccc1OC (stereo not given) with its measured pKi.
7.06

Annotate the compound CCCN(CCCCNC(=O)c1ccc2ccccc2c1)CC1CC1c1cc(Cl)ccc1OC (stereo not given) with its measured pKi.
7.57

Annotate the compound CCCN(CCCCNC(=O)c1ccc2ccccc2c1)CC1CC1c1ccc(Cl)cc1 (stereo not given) with its measured pKi.
7.49

Annotate the compound CCCN(CCCCNC(=O)c1ccc(-c2ccccn2)cc1)CC1CC1c1cccc(F)c1 (stereo not given) with its measured pKi.
7.34

Annotate the compound CCN(CCCSc1nnc(-c2ccccc2)n1C)CC1CC1c1cc(F)ccc1OCCF (stereo not given) with its measured pKi.
6.95

Annotate the compound CCCN(CCCCNC(=O)c1cc2ccccc2[nH]1)CC1CC1c1cccc(Cl)c1 (stereo not given) with its measured pKi.
7.95

Annotate the compound CCCN(CCCCNC(=O)c1ccc2ccccc2c1)CC1CC1c1cccc(Cl)c1 (stereo not given) with its measured pKi.
7.81

Annotate the compound COc1ccc(Cl)cc1C1CC1CN(CCCSc1nnc(-c2ccccc2)n1C)CC1CC1 (stereo not given) with its measured pKi.
7.63
